These data points were gathered from patent US20130030017A1.

Tested on: methicilline resistant Staphylococcus aureus (MRSA) (a clinical isolate from the University of Antwerp)
protocol_description: Microtitre plate assay, IC90 determination (STA RMETH)
Assay type: cell-based
conditions_used: 90% inhibitory concentration for bacterial growth, 37° C., 24 hours, resazurin fluorescence
What IC90 STA RMETH was measured for each of the following?
All answers are understood in µg/mL, so give the number only.

Fill blank: measured IC90 STA RMETH of the molecule COc1nc2ccc(Br)cc2cc1C(c1ccccc1)C(O)(CCc1ccccc1)CCN(C)C (racemic) [Compound 15] is ____. 10.6

Fill blank: measured IC90 STA RMETH of the molecule COc1nc2ccc(Br)cc2cc1C(c1ccccc1)C(O)(CCc1ccc(C)cc1)CCN(C)C (racemic) is ____. 13.8

Fill blank: measured IC90 STA RMETH of the molecule COc1nc2ccc(Br)cc2cc1C(c1ccc(C)cc1)C(O)(CCc1ccccc1)CCN(C)C (centres unmarked) is ____. 12.3

Fill blank: measured IC90 STA RMETH of the molecule COc1nc2ccc(Br)cc2cc1C(c1ccccc1)C(O)(CCc1ccc(F)c(F)c1)CCN(C)C (racemic) is ____. 11.4

Fill blank: measured IC90 STA RMETH of the molecule COc1nc2ccc(Br)cc2cc1C(c1ccc(Cl)cc1)C(O)(CCc1ccccc1)CCN(C)C (centres unmarked) is ____. 12.7

* * *

Tested on: Enterococcus faecalis (ATCC29212)
protocol_description: Microtitre plate assay, IC90 determination (EFA 29212)
Type: cell-based
conditions_used: Enterococcus faecalis, ATCC29212, 24 h, 90% inhibitory concentration for bacterial growth, 37° C., resazurin fluorescence
Protocol: The bacteria used in this study were grown overnight in flasks containing 100 ml Mueller-Hinton Broth (Becton Dickinson—cat. no. 275730) in sterile de-ionized water, with shaking, at 37° C. Stocks (0.5 ml/tube) were stored at −70° C. until use. Bacteria titrations were performed in microtiter plates and colony forming units (CFUs) were determined. In general, an inoculum level of approximately 100 CFUs was used for susceptibility testing. […]
Please note: IC90 exactly at 40 mg/L is F. Only values below 40 mg/L get T.

Decide: IC90 of COc1ccc2nc(OC)c(C(c3ccccc3)C(O)(CCc3ccccc3)CCN(C)C)cc2c1 (stereo not drawn) strictly below 40 mg/L? T

Decide: IC90 of COc1nc2ccc(Br)cc2cc1C(c1ccc(Cl)cc1)C(O)(CCc1ccc(F)cc1)CCN(C)C (stereo not drawn) strictly below 40 mg/L? F

Decide: IC90 of COc1ccccc1CCC(O)(CCN(C)C)C(c1ccc(Cl)cc1)c1cc2cc(Br)ccc2nc1OC (stereo not drawn) strictly below 40 mg/L? T

Decide: IC90 of COc1ccc(C(c2cc3cc(Br)ccc3nc2OC)C(O)(CCc2ccc(F)cc2)CCN(C)C)cc1 (stereo not drawn) strictly below 40 mg/L? F

Decide: IC90 of COc1nc2ccc(-c3cccnc3)cc2cc1C(c1ccccc1)C(O)(CCc1ccccc1)CCN(C)C (stereo not drawn) strictly below 40 mg/L? F

Decide: IC90 of COc1nc2cccc(Br)c2cc1C(c1ccccc1)C(O)(CCc1ccccc1)CCN(C)C (stereo not drawn) strictly below 40 mg/L? F

* * *

readout: melting point (°C)
All answers are understood in °C, so give the number only.

Fill blank: measured melting point of the compound COc1nc2ccccc2cc1C(c1ccccc1)C(O)(CCc1ccccc1)CCN(C)C (stereo not shown) is ____. 122

Fill blank: measured melting point of the compound CSc1nc2ccc(C)cc2cc1C(c1ccccc1)C(O)(CCc1ccccc1)CCN(C)C (stereo not shown) is ____. 180

Fill blank: measured melting point of the compound COc1nc2ccc(Cl)cc2cc1C(c1ccccc1)C(O)(CCc1ccccc1)CCN(C)C (stereo not shown) is ____. 172

Fill blank: measured melting point of the compound CSc1nc2ccc(Br)cc2cc1C(c1ccc(Cl)cc1)C(O)(CCc1ccccc1)CCN(C)C (stereo not shown) is ____. 222

Fill blank: measured melting point of the compound CNCCC(O)(CCc1ccc(F)cc1)C(c1ccccc1)c1cc2ccccc2nc1OC (stereo not shown) is ____. 134

Fill blank: measured melting point of the compound COc1nc2ccc(Br)cc2cc1C(c1ccccc1)C(O)(CCc1cccc2ccccc12)CCN(C)C (stereo not shown) [Compound 7] is ____. 206

Fill blank: measured melting point of the compound COc1nc2ccc(Br)cc2cc1C(c1ccccc1)C(O)(CCN(C)C)Cc1cccc2ccccc12 (stereo not shown) is ____. 112

Fill blank: measured melting point of the compound COc1nc2ccc(C)cc2cc1C(c1ccccc1)C(O)(CCc1ccccc1)CCN(C)C (stereo not shown) is ____. 142

Fill blank: measured melting point of the compound COc1nc2ccc(Br)cc2cc1C(c1ccccc1)C(O)(CCc1cccc2ccccc12)CCN(C)C (stereo not shown) [Compound 8] is ____. 160

Fill blank: measured melting point of the compound COc1nc2cccc(Br)c2cc1C(c1ccccc1)C(O)(CCc1ccccc1)CCN(C)C (stereo not shown) [Compound 6] is ____. 126
